# Test target: glucocerebrosidase (Gcase) (Homo sapiens, UniProt P04062)
# Sequence (P04062 40-536): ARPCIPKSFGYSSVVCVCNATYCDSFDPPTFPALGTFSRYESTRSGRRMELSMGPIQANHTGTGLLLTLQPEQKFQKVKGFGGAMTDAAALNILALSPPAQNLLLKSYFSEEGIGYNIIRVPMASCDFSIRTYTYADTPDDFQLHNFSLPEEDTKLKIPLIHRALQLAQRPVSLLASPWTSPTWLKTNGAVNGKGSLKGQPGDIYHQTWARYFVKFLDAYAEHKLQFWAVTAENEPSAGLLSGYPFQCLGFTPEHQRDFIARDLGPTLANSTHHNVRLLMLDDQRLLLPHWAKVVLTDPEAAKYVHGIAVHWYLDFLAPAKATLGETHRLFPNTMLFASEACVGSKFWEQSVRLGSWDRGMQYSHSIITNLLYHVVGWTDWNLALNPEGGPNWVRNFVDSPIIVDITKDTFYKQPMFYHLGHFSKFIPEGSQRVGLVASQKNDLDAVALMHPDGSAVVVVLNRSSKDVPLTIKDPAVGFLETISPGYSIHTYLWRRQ
# Procedure details: Glucocerebrosidase (Gcase) activation assay, 4-methylumbelliferyl-beta-D-glucopyranoside substrate, with saposin C
# Assay type: biochemical
# Conditions: 0.1 μM test compound; read-out: Percent Gcase Activation 0.1 μM Test Compound
Parameter measured: activation at 0.1 µM

Item under review: `Cc1cc(-c2ccc(F)cc2)nc2c(C(=O)NC(C)(C)C3CC3)ncn12` . Reported activation at 0.1 µM?
> 20%

Item under review: COc1cc(C)nc2c(C(=O)NC(c3ccc(F)cc3)C(F)(F)F)ncn12 (stereo not drawn) . Reported activation at 0.1 µM?
< 10%

Item under review: CCOc1cc(C)n2cnc(C(=O)NC(c3ccc(F)cc3)C(F)(F)F)c2n1 (stereo not drawn) . Reported activation at 0.1 µM?
> 20%

Item under review: COc1cc(C)n2cnc(C(=O)NC(c3ccc(F)cc3)C(F)(F)F)c2n1 (stereo not drawn) . Reported activation at 0.1 µM?
10 to 20%

Item under review: `Cc1cc(-c2ccncc2)nc2c(C(=O)NC(C)(C)C3CC3)ncn12` . Reported activation at 0.1 µM?
< 10%

Item under review: `Cc1cc(-c2cccc(Cl)c2)nc2c(C(=O)N[C@@H](C)C3CC3)ncn12` . Reported activation at 0.1 µM?
> 20%

Item under review: COCc1cc(C)nc2c(C(=O)NC(c3ccc(F)cc3)C(F)(F)F)ncn12 (stereo not drawn) . Reported activation at 0.1 µM?
> 20%

Item under review: `COc1cccc(-c2cc(C)n3cnc(C(=O)NC(C)(C)C)c3n2)c1` . Reported activation at 0.1 µM?
> 20%

Item under review: `C#CC(C)(C)NC(=O)c1ncn2c(C)cc(-c3cccc(Cl)c3)nc12` . Reported activation at 0.1 µM?
> 20%

Item under review: Cc1cc(-c2ccncc2)nc2c(C(=O)NC(CC(C)C)C3CC3)ncn12 (stereo not drawn) . Reported activation at 0.1 µM?
< 10%

Item under review: Cc1cc(-c2ccccc2C(N)=O)nc2c(C(=O)NC(C3CC3)C(F)(F)F)ncn12 (stereo not drawn) . Reported activation at 0.1 µM?
< 10%

Item under review: `Cc1cc(-c2ccn3ccnc3c2)nc2c(C(=O)N[C@@H](C)C3CC3)ncn12` . Reported activation at 0.1 µM?
< 10%

Item under review: Cc1cc(C)n2cnc(C(=O)NC(C3CC3)C(F)(F)F)c2n1 (stereo not drawn) . Reported activation at 0.1 µM?
< 10%

Item under review: `Cc1nc2c(C(=O)N[C@@H](C)C3CC3)ncn2c(C)c1-c1ccc(F)cc1` . Reported activation at 0.1 µM?
< 10%

Item under review: `Cc1cc(-c2cccnc2)nc2c(C(=O)N[C@H]3CC[C@H](OCC(C)C)CC3)ncn12` . Reported activation at 0.1 µM?
< 10%

Item under review: `CCCCO[C@H]1C[C@H]2CC[C@@H](C1)[C@H]2NC(=O)c1ncn2c(C)cc(-c3cccnc3)nc12` . Reported activation at 0.1 µM?
> 20%

Item under review: `COc1cccc(-c2cc(C)n3cnc(C(=O)NC(C4CC4)C4CC4)c3n2)c1` . Reported activation at 0.1 µM?
> 20%

Item under review: `Cc1cc(OC(C)C)nc2c(C(=O)NC(C3CC3)C3CC3)ncn12` . Reported activation at 0.1 µM?
10 to 20%

Where these numbers come from: patent US9920061B2
